Here the recorded log10 of IC50 is given for each entry.
test: Inhibition of Mycobacterium tuberculosis FabG4 assessed as reduction in NADH to NAD+ conversion using acetoacetyl-CoA substrate by UV-visible spectrophotometry; details: read-out: IC50
Recorded IC50 (log10, µM)

Here is how some compounds turned out for log10 of IC50.
O=C(NNC(=O)[C@@H]1C(=O)N(c2ccccc2)[C@H]1c1cccs1)c1ccncc1 (relative stereo) | 1.42
O=C(NNC(=O)[C@@H]1C(=O)N(c2ccccc2)[C@H]1c1ccco1)c1ccncc1 (relative stereo) | 1.44
O=C(O)[C@@H]1C(=O)N(c2ccccc2)[C@H]1c1ccncc1 (relative stereo) | 1.81
O=C1[C@@H](CO)[C@H](c2ccncc2)N1c1ccccc1 (relative stereo) | 2.82
O=C(NNC(=O)[C@@H]1C(=O)N(c2ccccc2)[C@H]1c1ccncc1)c1ccncc1 (relative stereo) | 1.18

As a next step, examine the compound that follows.
Ask | Recorded log10 of IC50 for O=C(NNC(=O)[C@@H]1C(=O)N(c2ccccc2)[C@H]1c1ccncc1)c1ccccc1 (relative stereo) , please?
Reply | 1.60
